This collection of values is drawn from the supplement of paper PMC11865577.

Tested on: TO-3-N3 (biotin conjugate)
Method: pull-down binding Z-score (relative to library population); higher = stronger binding
Particulars: RNA library: Library-2
Class boundaries, taken from values of pull-down binding Z-score, are as follows: label 0: < -0.3; label 1: ≥ -0.3 and < 0.5; label 2: ≥ 0.5

Query Sequence	Class Name
UUCAGAGUCAAUAUAAUUUUCUAG [hsa-mir-29a]	label 2
CAGGUAGUUUUGGCAUGACUCUACUG [hsa-mir-20b]	label 1
GUCUGUUUUCUUCAUGGUUUUCUGAC [hsa-mir-6759]	label 0
UGUCUUGUAGCCAGGAUAUUGUUUUAAAGAA [hsa-mir-4668]	label 0
GUCUAAUCUCAAACCUUUUGAGAGAGAU	label 0
GAAGCCUUGAUCAGAAGCUAGGAAGGCUUC [hsa-mir-4762]	label 2
UAUCUAUAUAUAUGUGUA [hsa-mir-3171]	label 1
GGGCCAGUCUGACCGUUUCUAGGCG [hsa-mir-551a]	label 2
UGGCCUGGCAGUGCGUCGGAAGAACAGGGCGGGUGGGGCC [hsa-mir-4792]	label 2
GGGCCCCAAGACUCGGGGUUU [hsa-mir-4651]	label 2
CCUGGAGAGCUGCUGUCUCCAG [hsa-mir-6746]	label 1
ACUUCAGAUGCUUCAUGACA [hsa-mir-6865]	label 1
CAUCGUUGAUAGUG [SHAPE_invitro_SARS-CoV-2_Motif_152]	label 2
UGUACAUACAGCUAAUAAAUGGGAUCUCAUUAUUAGUGAUAUGUACG [DMSMaPseq_invitro_SARS-CoV-2_Motif_370]	label 0
AAUGUCAGGGCCACCCCUGACCUU [hsa-mir-6837]	label 0
UUAAACACGCUUGUUAAACAACUUAGCUCCAAUUUUGGUGCAAUUUCAAGUGUUUUAA [SHAPE_invivo_SARS-CoV-2_Motif_457]	label 1
AACUGAAAGUAAACCUUCAGUU	label 1
CGGAGCCUCGCAGGGUCGGGCUCGGGCUCCCUAACCGUCUCCGCUUCUUC [hsa-mir-6084]	label 2
UGGGGAUCACAACUCA [IAV_invivo_PB1_2_Motif_11+IAV_invivo_PB1_2_Motif_11]	label 1
UUUGCCGUUGCUUUUAAUGGUAAA [hsa-mir-548as]	label 1
UGCUCAAGAAGCUUAUGAGCA [SHAPE_invivo_SARS-CoV-2_Motif_229]	label 0

----------
Attribute: pull-down binding Z-score
Test system: G-clamp-N3 (biotin conjugate)
Method: pull-down binding Z-score (relative to library population); higher = stronger binding
Particulars: RNA library: Library-1 (pre-miRNA loops + repeats)
Attribute Measured: pull-down binding Z-score

Query Sequence	Result
CCUUAGCACUAGCAGGAGG [hsa-mir-612]	0.101
GCAGCACUGUGCUGGGGAUGUUGC [hsa-mir-1301]	1.24
UGGAAGGAAUGGGAUCUACUUCCA [hsa-mir-3612]	0.981
CACAGUUCUGG [hsa-mir-761]	0.647
CUGUUCAGGAGGCUCUCAAUGUGUACA [hsa-mir-199a-1]	-0.113
UCUUAGACUAUUACAAGA [hsa-mir-3672]	-0.633

----------
Test system: TO-3-N3 (biotin conjugate)
Method: pull-down binding Z-score (relative to library population); higher = stronger binding
Particulars: RNA library: Library-2
Class boundaries, taken from values of pull-down binding Z-score, are as follows: low band: < -0.4; middle band: ≥ -0.4 and < 0.09; high band: ≥ 0.09

Query Sequence	Class Name
GGAGAUCGUACC [hsa-mir-4430]	middle band
GCGGCUGUUAAUGAUUUUAACAGUUGC [hsa-mir-449c]	low band
GGCUGCAGGCCCGGCCCCUCUC [hsa-mir-6787]	high band
UGUUGACUGAAUAAUAAACA [hsa-mir-3139]	low band
UUCUGCUGUGCCUUACAGCAGUAGAA [hsa-mir-3179-4_3179-1_3179-3_3179-2]	high band
GACCAGAAAUCAGCCCGAAUGGUU [IAV_invivo_PB1_2_Motif_17+IAV_invivo_PB1_2_Motif_17]	low band
UGUUGAGCGCAGUAAGACAACA [hsa-mir-3529]	low band
CUAAUCUCUUAGCACUGAAGAUUAG [hsa-mir-4671]	middle band
CUGAUCCUAGUUUUCUGGGUAG [SHAPE_invivo_SARS-CoV-2_Motif_108]	middle band
ACUAAAAAUGU [SHAPE_invitro_SARS-CoV-2_Motif_381]	high band
CAGCACUGAGCAGGCAGUGUUGU [hsa-mir-4288]	middle band
ACACAUUCUGACAAAUUCACAGAUGGUGU [SHAPE_invitro_SARS-CoV-2_Motif_350]	low band
UGUGACCUUCAAAAUUAUGGUGAUAGUGCAACAUUACCUAAAGGCAUAAUGAUGAAUGUCGCA	low band
AUAGAACAUUGACAUCAACACUAG [hsa-mir-4278]	middle band
AACACUUCCCACAGAAGUGUU	middle band
GGGUAGGGUUUGGGGGAGAGCGUGGGCUGGGGUUCAGGGACA [pre-miRNA-1229_WT_FL]	high band
GUGACGCCGCGAAGUGCAC [hsa-mir-3147]	high band
CCACUACCGGUGA [hsa-mir-4658]	middle band
GGAAUCCUACGUGAGGGACAAUCAUUCAGACCCACGUAGCAGUGUUCU [hsa-mir-1299]	high band
AUUUAUGUGAACUAAAAUAUAAAU [hsa-mir-513b]	high band
AACGGGGCGGGCCUUGGGCGGGGUAA [G4_2A2_VEGF-Pu22-mt]	high band
GCUAAAGAUACUACUGAAGCCUUUGAAAAAAUGGUUUCACUACUUUCUGUUUUGC [SHAPE_invitro_SARS-CoV-2_Motif_217]	high band
UACCAUUUAAUGAUGGUG	high band
ACACUUCCUAUAUGUAUCCACAUAUAUAUAGU [hsa-mir-568]	low band
AUCAUAAUAAAGGUGUCAUGAU [hsa-mir-3682]	low band
CUGAACCCGUGGGUGAGGAGUGCAG [hsa-mir-4690]	high band
AAAUAAGCUCCAUAUCAAUGAGAAUUUCAAUGGGAUUAUGUG [hsa-mir-4791]	low band
UGGGAUAUUGCCCG [IAV_invivo_PB2_1_Motif_20+IAV_invivo_PB2_1_Motif_20]	low band
GUUGGGAUUGAGUUUUGAACUCGGC [hsa-mir-196a-2]	middle band
AUUGUUGUGGGGUAGGGAUAUUAGGCCCCAAUUAGAAGAUAACUAU [hsa-mir-98]	high band
UAGCUGUACCCUAUAAUAUGAGAGUUAUACAUUUUGGUGCUGGUUCUGAUAAAGGAGUUGCACCAGGUACAGCUG	middle band
UGAAGCCCCGAGAUGCCUCACGUCUUCA [hsa-mir-6802]	middle band
UGCUUGACCUGAAUGCUACAAGGCA [hsa-mir-103b-2]	middle band
AAGUAGUUGGCGUCUUCAGAGACACUU [hsa-mir-643]	high band
CACUUUCUGCUCUCUGGUGAAAGUG [hsa-mir-371a]	middle band
GCCGCGGAAGAAGGGGAAGCGC [hsa-mir-6720]	high band
GAGACUUAGAAAUCCCUAAGUCUC [hsa-mir-3921]	middle band
CUUUAGGCAUUCAGAAUAGCUAAAG [hsa-mir-4662b]	low band
AGUUUCUGGAAGUUCUGACAUUCCAGAAACU [hsa-mir-3199-1]	low band
UGGUAAUGCUGCUAUCAGCGAUUAUGACUACUAUCGUUAUAAUCUACCA	low band
AGUUUUUGUACACAAUUAAACCGUGCUUUAACU	low band
GUUCUUGAGUGUAAUGUGAAAACUACCGAAGUUGUAGGAGACAUUAUACUUAAACCAGC	middle band

----------
Test system: TO-3-N3 (biotin conjugate)
Method: pull-down binding Z-score (relative to library population); higher = stronger binding
Particulars: RNA library: Library-2
Attribute: pull-down binding Z-score
Attribute Measured: pull-down binding Z-score

Query Sequence	Tested Target	Numeric Result
GGUUUUAUAGCUGGCUUGAUUGCCAUAGUAAUGGUGACAAUUAUGCUUUGCUGUAUGACC	TO-3-N3 (biotin conjugate)	-0.96
GACAGUGGUUGCCUACGGGUACGCUGCUUGUC	TO-3-N3 (biotin conjugate)	0.731
UACUGGUUCUAUACCUUGUA [SARS-CoV-2-Conserved-Structured-4_Interval-7011-7130_Motif_3]	TO-3-N3 (biotin conjugate)	0.217
GCAAACAUACAACGUGUUGU [SHAPE_invitro_SARS-CoV-2_Motif_281]	TO-3-N3 (biotin conjugate)	-0.398
AUACCACUUAUGUACAAAGGACUUCCUUGGAAUGUAGUGCGUAU	TO-3-N3 (biotin conjugate)	-0.527
UGCAAGAGAUGGUUGUGUUCCCUUGAACAUAAUACCUCUUACA [DMSMaPseq_invitro_SARS-CoV-2_Motif_219]	TO-3-N3 (biotin conjugate)	-0.678
GGAUUUCUGGACAUUUGGACAUAUAAUGCAGAAUUGUUAGUUCUACUGGAAAAUGAAAGGACUCUGGAUUUCC [IAV_invivo_HA_4_Motif_17+IAV_invivo_HA_4_Motif_17]	TO-3-N3 (biotin conjugate)	-0.659
CCAAUGGUAUCCAGUGAUUCGUUGA [hsa-mir-4709]	TO-3-N3 (biotin conjugate)	-0.486
AAGCUGACAGACAGCUG [hsa-mir-5691]	TO-3-N3 (biotin conjugate)	-0.057
